Data provenance is PubChem BioAssay (Tox21).

Assay: qHTS assay for identifying genotoxic compounds that show differential cytotoxicity against isogenic chicken DT40 cell lines with known DNA damage response pathways - Rad54/Ku70 mutant cell line (AID 743015); note: nearly all actives have a fitted effect of over 60% in size
Conditions: DT40 Rad54/Ku70 mutant viability, CellTiter-Glo, 40 h; series mostly up to 66.8 µM
From the text: National Center for Advancing Translational Sciences [NCATS] NIH Chemical Genomics Center [NCGC] U.S. Environmental Protection Agency [EPA] National Institutes of Environmental Health Sciences [NIEHS] National Toxicology Program [NTP] U.S. Food and Drug Administration [FDA] DNA repair pathways play a critical role in cellular homeostasis by repairing DNA damage induced by endogenous processes and xenobiotics. […]
Results filed as inconclusive are left out. The source made the active and inactive calls. Calls come from the whole dose curve; as a rule, active = well fitted cell-killing curve with a large enough effect in the repeat runs; inconclusive = weak or mixed curves; inactive = no such curve, though single readings can be large or run the other way.
Respond using exactly one of the listed classes: active, inactive

c1ccc2c(c1)ccc1ccccc12 | active
COc1ccc(NC(C)=O)cc1N | inactive
Oc1cccc2ccccc12 | inactive
Cc1cc(C)c(C)cc1C | inactive
CCCCCCCC(=O)OC | inactive

Hey, what did the test say about "c1ccc(OCCOc2ccccc2)cc1" ?
inactive

Returns: the outcome recorded for "CC(=O)CC(=O)Nc1ccccc1" in this assay.
inactive

// outcome(item) with item = "Cc1cccnc1"
inactive

// return assay outcome for "CCCCCC1=CCCC1=O"
inactive

For this molecule, state the assay outcome: CCN(CC)CCCC(C)Nc1ccnc2cc(Cl)ccc12 (centres undefined)
active

Dear colleague, could you share the recorded outcome for CN(C)CCC(c1ccccc1)c1ccccn1 (centres undefined) when you have a moment?
inactive

// return assay outcome for CC1CCC2CC1C2(C)C (centres undefined)
inactive

What was the test verdict on "FC(F)(F)c1ccc(Cl)c(Cl)c1" ?
inactive

Hi team, can someone confirm the assay call for CN(C)CCC(c1ccc(Cl)cc1)c1ccccn1 (centres undefined) ?
inactive

Record lookup: outcome of this test for CC1CCC(C(C)C)C(O)C1 (centres undefined) ?
inactive

# fetch the recorded call for "CCCC(C)=O" here
inactive

For "CCCCOC(=O)COc1ccc(Cl)cc1Cl" , what call appears in the results of this test?
inactive

Lab log entry: "O=C(O)c1ccc(C(=O)O)cc1" — outcome as called in the assay?
inactive

Per the records of this test, what outcome belongs to "O=C=NCCCCCCN=C=O" ?
inactive

Just curious, what result did "O=C(O)c1cc(O)c(O)c(O)c1" get here?
active

How was O=C(O)CC(C(=O)O)C(CC(=O)O)C(=O)O (centres undefined) classified in this test?
inactive

Check the results log: what was the call for "O=c1[nH]nnc2ccccc12" ?
inactive

For this molecule, state the assay outcome: "O=C(Oc1ccccc1)c1ccccc1"
inactive

Name the outcome recorded for "C[Si](O[Si](C)(C)C)O[Si](C)(C)C" in the assay.
inactive

###

assay: qHTS assay to identify aromatase inhibitors - cell viability counter screen (AID 743084); settings: MCF-7 aro ERE viability, CellTiter-Fluor, 24 h; series mostly up to 70.3 µM;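 note: cells stimulated with testosterone during compound exposure; % is set by controls: 0 for no effect and ±100 for the full control effect; nearly all actives have a fitted effect of over 55% in size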
Inconclusive results are not listed. Activity calls are given as the source filed them. Calls come from the whole dose curve; as a rule, active = well fitted cell-killing curve with a large enough effect in the repeat runs; inconclusive = weak or mixed curves, or effect the other way; inactive = no such curve, though single readings can be large or run the other way.
Allowed answers: active, inactive

// param item: "O=C(O)c1ccc2c(c1)C(=O)OC2=O" ; yields the recorded call
inactive

How was CCC(O)OC(O)CC (configuration not stated) classified in this test?
inactive

Dear all, I need the recorded test outcome for "O=C(O)CCCC[C@@H]1SC[C@@H]2NC(=O)N[C@@H]21" , thank you.
inactive

###

molecular target: Nuclear receptor subfamily 1 group I member 2 (Homo sapiens); experiment: Human pregnane X receptor (PXR) small molecule agonists, qHTS assay (AID 1346982); settings: PXR-Luc HepG2, CYP3A4 luciferase reporter, 24 h; series mostly up to 92.4 µM; note: % is set by controls: 0 for no effect and ±100 for the full control effect; nearly all actives have a fitted effect of over 35% in size
Results filed as inconclusive are left out. The source made the active and inactive calls. Calls come from the whole dose curve; as a rule, active = well fitted activation curve with a large enough effect in the repeat runs; inconclusive = weak or mixed curves; inactive = no such curve, though single readings can be large or run the other way.
Please state which outcome applies, choosing from yes (1) (active), no (0) (inactive)

For orientation, consider the following solved cases.
C#CCN(C)Cc1ccccc1 | no (0)
CCCCCCCCCC | no (0)
CCCC(C)=O | no (0)

Just curious, what result did "CCCCCOC(C)=O" get here?
no (0)

Call for entry "O=[N+]([O-])c1ccc(/C=C/c2ccc([N+](=O)[O-])cc2S(=O)(=O)O)c(S(=O)(=O)O)c1" :
no (0)

Write down the call the test reported for this compound. Item: "CC(=O)CC(=O)Nc1ccccc1"
no (0)

Write down the call the test reported for this compound. Item: "CCOC(=O)NNc1nncc2ccccc12"
no (0)

Please indicate how the test categorized "O=C(O)c1cc(C(=O)O)cc(S(=O)(=O)O)c1" .
no (0)

Entry "O=C(O)c1ccc2c(c1)C(=O)OC2=O" : call = ?
no (0)

Any idea what this test logged for CCCCC(CC)COC(=O)CS (configuration not stated) ?
no (0)

Any idea what this test logged for "O=S(=O)(O)c1ccc2ccccc2c1" ?
no (0)

###

Assay: qHTS assay for identifying genotoxic compounds that show differential cytotoxicity against isogenic chicken DT40 cell lines with known DNA damage response pathways - Rev3 mutant cell line (AID 743014); note: % is set by controls: 0 for no effect and ±100 for the full control effect; nearly all actives have a fitted effect of over 55% in size
Conditions: chicken DT40 Rev3-/- viability, CellTiter-Glo, 40 h; series mostly up to 68.4 µM
Text: National Center for Advancing Translational Sciences [NCATS] NIH Chemical Genomics Center [NCGC] U.S. Environmental Protection Agency [EPA] National Institutes of Environmental Health Sciences [NIEHS] National Toxicology Program [NTP] U.S. Food and Drug Administration [FDA] DNA repair pathways play a critical role in cellular homeostasis by repairing DNA damage induced by endogenous processes and xenobiotics. […]
Results filed as inconclusive are left out. Activity calls are given as the source filed them. Calls follow the shape of the dose curve; as a rule, active = well fitted cell-killing curve with a large enough effect in the repeat runs; inconclusive = weak or mixed curves, or effect the other way; inactive = no such curve, though single readings can be large or run the other way.
Use one of these outcomes when replying: label 1 = active, label 0 = inactive

These recorded examples may help you get a feel for the data.
O=C1CCC(N2C(=O)c3ccccc3C2=O)C(=O)N1 (stereo unspecified) | label 0
COc1ccc(Nc2ccccc2)c(C)c1 | label 0
OCc1cccnc1 | label 0

Let's switch to this compound now.
# fetch the recorded call for "FC(F)(F)c1ccc(Cl)c(Cl)c1" here
label 0

###

assay: A CellTox Green Cytotoxicity Assay to monitor cytotoxicity in HepG2 cells - 8 hour (AID 1224890); conditions: CellTox Green fluorescence; series mostly up to 76.8 µM; note: % is set by controls: 0 for no effect and ±100 for the full control effect; nearly all actives have a fitted effect of over 45% in size
Results filed as inconclusive are left out. Active and inactive are the calls of the source. Calls come from the whole dose curve; as a rule, active = well fitted activation curve with a large enough effect in the repeat runs; inconclusive = weak or mixed curves; inactive = flat fitted curve, though single readings scatter.
PROPERTY_NAME: outcome

Worked cases, answers included:
CCCCCCCCCC | inactive
O=C(CC(C(=O)OC1CCCCC1)S(=O)(=O)O)OC1CCCCC1 (stereo not drawn) | inactive
O=C(O)c1cc(=O)c2c(OCC(O)COc3cccc4oc(C(=O)O)cc(=O)c34)cccc2o1 | inactive
CCCCCC/C(C=O)=C\c1ccccc1 | inactive
C=C(C)C(=O)O[C@H]1C[C@@H]2CC[C@@]1(C)C2(C)C | inactive

Tell me its outcome given "O=C(O)c1cc(O)c(O)c(O)c1" as the entry.
inactive

Give the measured outcome for CC1CCC(C(C)C)C(O)C1 (stereo not drawn)
inactive

Please supply the value of reported outcome for the item "O=S(=O)(O)c1ccc2ccccc2c1"
inactive

Query outcome for "CCN(CC)c1ccc(C(=O)c2ccccc2C(=O)O)c(O)c1"
inactive

###

assay: A CellTox Green Cytotoxicity Assay to monitor cytotoxicity in HepG2 cells - 24 hour (AID 1224878); details: CellTox Green fluorescence; series mostly up to 76.8 µM; note: % is set by controls: 0 for no effect and ±100 for the full control effect; nearly all actives have a fitted effect of over 45% in size
Inconclusive results are not listed. Calls of active or inactive are those of the source. Calls come from the whole dose curve; as a rule, active = well fitted activation curve with a large enough effect in the repeat runs; inconclusive = weak or mixed curves; inactive = flat fitted curve, though single readings scatter.
PROPERTY_NAME: cytotoxicity

# example entries with known answers
COc1cc(Cc2cnc(N)nc2N)cc(OC)c1OC | inactive
CN(C)CCC(c1ccccc1)c1ccccn1 (configuration not stated) | inactive
O=C(O)c1cc(C(=O)O)cc(S(=O)(=O)O)c1 | inactive
C#CCN(C)Cc1ccccc1 | inactive

# input for lookup
Let me know recorded cytotoxicity for "CCCCCCCCCC" , thanks.
inactive

###

experiment: qHTS assay to identify aromatase inhibitors - cell viability counter screen (AID 743084); conditions: MCF-7 aro ERE viability, CellTiter-Fluor, 24 h; series mostly up to 70.3 µM;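 note: cells stimulated with testosterone during compound exposure; % is set by controls: 0 for no effect and ±100 for the full control effect; nearly all actives have a fitted effect of over 55% in size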
Records with an inconclusive call do not appear. Activity calls are given as the source filed them. Calls follow the shape of the dose curve; as a rule, active = well fitted cell-killing curve with a large enough effect in the repeat runs; inconclusive = weak or mixed curves, or effect the other way; inactive = no such curve, though single readings can be large or run the other way.
PROPERTY_NAME: outcome

Cc1cccnc1 | inactive
Cc1ccc(S(N)(=O)=O)cc1 | inactive
O=C(Oc1ccccc1)c1ccccc1 | inactive

###

assay: qHTS assay for small molecule disruptors of the mitochondrial membrane potential (AID 720635); conditions: HepG2 mitochondrial membrane potential, Mito-MPS dye ratio; series mostly up to 83.2 µM; note: % is set by controls: 0 for no effect and ±100 for the full control effect
Results filed as inconclusive are left out. The source made the active and inactive calls. Calls follow the shape of the dose curve; as a rule, active = well fitted inhibition curve with a large enough effect in the signal ratio in the repeat runs; inconclusive = weak or mixed curves, or effect the other way; inactive = flat fitted curve, though single readings scatter; the % refers to the signal ratio.
Answer with one of the outcomes given here: active, inactive

Illustrative cases are given below, each with its answer.
CCCCOC(=O)COc1ccc(Cl)cc1Cl | inactive
CCCCCC(N)=O | inactive
O=C(O)c1ccc(C(=O)O)cc1 | inactive

Would you kindly look at the next entry?
// param item: CCCCC(CC)COC(=O)CS (stereo unspecified) ; yields the recorded call
inactive

###

biological target: Nuclear receptor subfamily 1 group I member 2 (Rattus norvegicus); assay: Rat pregnane X receptor (rPXR) activation by small molecules, qHTS assay (AID 1346983); details: rPXR luciferase reporter cells, One-Glo luminescence, 24 h; note: potency is the fitted concentration of half-maximal effect; nearly all actives have a fitted effect of over 20% in size
Inconclusive results are not listed. Calls of active or inactive are those of the source. Calls come from the whole dose curve; as a rule, active = well fitted activation curve with a large enough effect in the repeat runs; inconclusive = weak or mixed curves; inactive = no such curve, though single readings can be large or run the other way.
PROPERTY_NAME: Potency

Worked cases, Potency given:
O=c1[nH]c(=O)n([C@H]2C[C@H](O)[C@@H](CO)O2)cc1Br | 4.47 µM (active)
CC[C@H](C)C(=O)O[C@H]1C[C@@H](C)C=C2C=C[C@H](C)[C@H](CC[C@@H]3C[C@@H](O)CC(=O)O3)[C@H]21 | 12.6 µM (active)
COCCCOc1ccnc(CS(=O)c2nc3ccccc3[nH]2)c1C (stereo unspecified) | 14.1 µM (active)

Give the measured Potency for "NNc1nncc2ccccc12"
0.112 µM (active)

Please supply the value of reported Potency for the item "C[C@H]1C[C@@H]2[C@H]([C@@H](O)C[C@@]3(C)[C@H]2CC[C@]3(O)C(=O)CO)[C@@]2(C)C=CC(=O)C=C12"
1.58 µM (active)

Could you please provide reported Potency for "CC(=O)OCC(=O)[C@@]12N=C(C)O[C@@H]1C[C@H]1[C@@H]3CCC4=CC(=O)C=C[C@]4(C)[C@H]3[C@@H](O)C[C@@]12C" ? Thanks!
15.8 µM (active)
